The reported measurements were obtained from paper PMC8230565.

Reported LD50 values follow for various molecules
System: neuroblastoma SHSY5Y cells
Test name: Cytotoxicity in SHSY5Y cells (MTT reduction)
Format: cell-based
Setup conditions: MTT reduction

Some solved entries appear below for comparison.
[ask] Supply measured LD50 of "COC(=O)C1=C(C)N(CCc2ccccc2)C(=O)/C1=C\c1ccc2c(c1)OCO2" in your reply.
[reply] >100 µM

[ask] Supply measured LD50 of "COC(=O)C1=C(C)N(CCc2ccccc2)C(=O)/C1=C\c1c[nH]c2ccccc12" in your reply.
[reply] >100 µM

[ask] Supply measured LD50 of "COC(=O)C1=C(C)N(CCc2ccccc2)C(=O)/C1=C\c1cc(OC)c(OC)cc1OC" in your reply.
[reply] >100 µM

[ask] Supply measured LD50 of "COC(=O)C1=C(C)N(Cc2ccccc2)C(=O)/C1=C\c1ccccc1" in your reply.
[reply] 63.7 ± 12.8 µM

New cases:
[ask] Supply measured LD50 of "COC(=O)C1=C(C)N(CCc2ccc(OC)c(OC)c2)C(=O)/C1=C\c1ccc(OCc2ccc(Cl)cc2)c(OC)c1" in your reply.
[reply] >100 µM

[ask] Supply measured LD50 of "COC(=O)C1=C(C)N(CCc2ccc(OC)c(OC)c2)C(=O)/C1=C\c1ccc(OCc2ccccc2Cl)c(OC)c1" in your reply.
[reply] >100 µM

* * *

Target or system: AChE (Electrophorus electricus) (Electrophorus electricus)
Sequence (O42275 24-633): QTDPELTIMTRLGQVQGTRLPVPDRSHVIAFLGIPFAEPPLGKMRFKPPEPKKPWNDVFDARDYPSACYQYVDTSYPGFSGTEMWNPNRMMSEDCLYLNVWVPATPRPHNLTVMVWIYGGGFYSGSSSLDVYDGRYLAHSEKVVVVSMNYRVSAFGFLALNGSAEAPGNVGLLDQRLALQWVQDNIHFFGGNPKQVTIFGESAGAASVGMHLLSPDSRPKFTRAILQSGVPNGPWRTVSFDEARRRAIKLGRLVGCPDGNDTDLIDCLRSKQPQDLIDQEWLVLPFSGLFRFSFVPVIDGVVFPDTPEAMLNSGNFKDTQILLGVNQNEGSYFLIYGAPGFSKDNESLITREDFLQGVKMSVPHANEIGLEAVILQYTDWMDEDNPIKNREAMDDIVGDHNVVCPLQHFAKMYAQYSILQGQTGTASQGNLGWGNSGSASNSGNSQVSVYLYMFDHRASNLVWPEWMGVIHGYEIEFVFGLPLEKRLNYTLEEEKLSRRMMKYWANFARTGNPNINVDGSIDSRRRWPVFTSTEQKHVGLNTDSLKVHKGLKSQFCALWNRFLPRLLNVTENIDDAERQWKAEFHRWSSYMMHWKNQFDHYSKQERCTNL
Test name: Acetylcholinesterase inhibition (Ellman's method)
Format: biochemical
Setup conditions: 10 μM compound; read-out: % Inhibition of EeAChE at 10 μM
Hi, to clarify the labels: 1 (yes) covers inhibition at 10 µM from 30% upward, 0 (no) covers anything below 30%.

Solved entries (count: 3):
[ask] hey, is inhibition at 10 µM for this one >= 30%? "COC(=O)C1=C(C)N(CCc2ccccc2)C(=O)/C1=C\c1cc(OC)c(OC)c(OC)c1"
[reply] 0 (no)

[ask] hey, is inhibition at 10 µM for this one >= 30%? "COC(=O)C1=C(C)N(CCc2ccc(OC)c(OC)c2)C(=O)/C1=C\c1ccc(OCc2ccccc2Cl)c(OC)c1"
[reply] 0 (no)

[ask] hey, is inhibition at 10 µM for this one >= 30%? "COC(=O)C1=C(C)N(CCc2ccccc2)C(=O)/C1=C\c1ccc2c(c1)OCO2"
[reply] 0 (no)

New cases:
[ask] hey, is inhibition at 10 µM for this one >= 30%? "COC(=O)C1=C(C)N(Cc2ccccc2)C(=O)/C1=C\c1ccc(Cl)cc1"
[reply] 1 (yes)

[ask] hey, is inhibition at 10 µM for this one >= 30%? "COC(=O)C1=C(C)N(CCc2ccccc2)C(=O)/C1=C\c1ccc(OC)cc1OC"
[reply] 0 (no)

[ask] hey, is inhibition at 10 µM for this one >= 30%? "COC(=O)C1=C(C)N(CCc2ccccc2)C(=O)/C1=C\c1ccc(OCc2ccccc2F)c(OC)c1"
[reply] 0 (no)

[ask] hey, is inhibition at 10 µM for this one >= 30%? "COC(=O)C1=C(C)N(Cc2ccccc2)C(=O)/C1=C\c1ccccc1"
[reply] 0 (no)

* * *

Reported IC50 values follow for various compounds
Target or system: AChE (Electrophorus electricus) (Electrophorus electricus)
Report as a plain number; the unit µM is understood.

[ask] Tell me IC50 of COC(=O)C1=C(C)N(CCc2ccccc2)C(=O)/C1=C\c1ccc(OCc2ccccc2Cl)c(OC)c1 [Compound 3k] when tested on AChE (Electrophorus electricus) (Electrophorus electricus).
[reply] 22.4

[ask] Tell me IC50 of COC(=O)C1=C(C)N(Cc2ccccc2)C(=O)/C1=C\c1ccc(OC)cc1 [Compound 3b] when tested on AChE (Electrophorus electricus) (Electrophorus electricus).
[reply] 29.7

New cases:
[ask] Tell me IC50 of COC(=O)C1=C(C)N(CCc2ccccc2)C(=O)/C1=C\c1c[nH]c2ccccc12 [Compound 3o] when tested on AChE (Electrophorus electricus) (Electrophorus electricus).
[reply] 12.5
